# Tested on: OVCAR8
# Assay Protocol: drug sensitivity score (DSS2) on cancer cell count; higher = more sensitive; extreme values may be limits of the assay
# Stated Conditions: co-cultured fibroblast: BJHTERT; 72 h
Quantity Measured: drug sensitivity score (DSS)
Report the figure in DSS without appending any unit label.

>  <Compound>
COc1ccc(CCc2nc3cc(-c4c(C)noc4C)ccc3n2C[C@H](C)N2CCOCC2)cc1Cl

>  <Target>
OVCAR8

>  <drug sensitivity score, DSS>
9.9

$$$$
>  <Compound>
CN1CCc2c(c3ccccc3n2Cc2ccc(C(=O)NO)cc2)C1

>  <Target>
OVCAR8

>  <drug sensitivity score, DSS>
0

$$$$

Enquiry: Write down drug sensitivity score measured for item CCCN(CCC)C(=O)C1=Cc2ccc(-c3ccc(C(=O)N4CCCC4)cc3)cc2N=C(N)C1
Return: 0

Enquiry: Write down drug sensitivity score measured for item O=C(/C=C\n1cnc(-c2cc(C(F)(F)F)cc(C(F)(F)F)c2)n1)NNc1cnccn1 [Selinexor]
Return: 22.4
